TARGET_OF_ASSAY: fWL, fluorescently labelled H14 foldamer WL
EXPERIMENTAL_DETAILS: fluorescence polarisation; direct FP: S100 protein diluted in 50 nM labeled foldamer, 20 mM HEPES pH 7.5, 150 mM NaCl, 1 mM CaCl2, 0.5 mM TCEP, 0.01% Tween20; quadratic fit (ProFit); detection threshold Kd 1 mM
MEASURED_ENDPOINT: Kd (µM)
Unit µM implied. Number only.

// Kd value for S100B (natural protein) MSELEKAMVALIDVFHQYSGREGDKHKLKKSELKELINNELSHFLEEIKEQEVVDKVMETLDNDGDGECDFQEFMAFVAMVTTACHEFFEHE : 11
